Recorded MIC50, one value per entry.
Test system: Mycobacteroides abscessus
PROTOCOL DETAILS: Antimycobacterial activity against Mycobacterium abscessus CIP104536T with smooth morphotype assessed as inhibition of mycobacterial growth incubated for 3 to 5 days by resazurin microtiter assay
Format: functional
CONDITION DESCRIPTION: time 3-5 day

Worked cases, MIC50 given:
{"SMILES CODE": "NNC(=O)/C=C/c1ccc(C(F)(F)F)cc1", "TEST SYSTEM": "Mycobacteroides abscessus", "MIC50": "> 100 µg/mL"}
{"SMILES CODE": "O=C(/C=C/c1ccc(-c2ccccc2)cc1)NO", "TEST SYSTEM": "Mycobacteroides abscessus", "MIC50": "> 100 µg/mL"}
{"SMILES CODE": "CCCCCC(=O)ONC(=O)/C=C/c1ccc(OC)cc1", "TEST SYSTEM": "Mycobacteroides abscessus", "MIC50": "63 µg/mL"}
{"SMILES CODE": "O=C(/C=C/c1ccccc1)NO", "TEST SYSTEM": "Mycobacteroides abscessus", "MIC50": "> 100 µg/mL"}

Next:
What does the data say about its MIC50? Entry: NNC(=O)/C=C/C=C/c1ccc(F)cc1
> 100 µg/mL

====

System: Mycobacteroides abscessus
PROTOCOL DETAILS: Antimycobacterial activity against Mycobacterium abscessus CIP104536T with rough morphotype assessed as inhibition of mycobacterial growth incubated for 3 to 5 days by resazurin microtiter assay
Type: functional
CONDITION DESCRIPTION: time 3-5 day
Reported MIC50 values are given for each entry in this list.

{"SMILES CODE": "NNC(=O)/C=C/c1cccc(F)c1", "TEST SYSTEM": "Mycobacteroides abscessus", "MIC50": "> 100 µg/mL"}
{"SMILES CODE": "O=C(/C=C/C=C/c1ccccc1)NO", "TEST SYSTEM": "Mycobacteroides abscessus", "MIC50": "> 100 µg/mL"}
{"SMILES CODE": "CCCCCCCOc1ccc(/C=C/C=C/C(=O)NN)cc1", "TEST SYSTEM": "Mycobacteroides abscessus", "MIC50": "9.7 µg/mL"}
{"SMILES CODE": "CCCCCCCCc1ccc(/C=C/C=C/C(=O)NO)cc1", "TEST SYSTEM": "Mycobacteroides abscessus", "MIC50": "> 100 µg/mL"}
{"SMILES CODE": "CCCCCC(=O)ONC(=O)/C=C/C=C/c1ccc(OC)cc1", "TEST SYSTEM": "Mycobacteroides abscessus", "MIC50": "> 100 µg/mL"}
{"SMILES CODE": "O=C(/C=C/c1ccc(C(F)(F)F)cc1)NO", "TEST SYSTEM": "Mycobacteroides abscessus", "MIC50": "6.3 µg/mL"}
{"SMILES CODE": "NNC(=O)/C=C/c1cccc(C(F)(F)F)c1", "TEST SYSTEM": "Mycobacteroides abscessus", "MIC50": "51.4 µg/mL"}
{"SMILES CODE": "O=C(/C=C/c1cccc(C(F)(F)F)c1)NO", "TEST SYSTEM": "Mycobacteroides abscessus", "MIC50": "7.8 µg/mL"}
{"SMILES CODE": "O=C(/C=C/c1ccccc1)NO", "TEST SYSTEM": "Mycobacteroides abscessus", "MIC50": "> 100 µg/mL"}
{"SMILES CODE": "CCCCOc1ccc(/C=C/C=C/C(=O)NO)cc1", "TEST SYSTEM": "Mycobacteroides abscessus", "MIC50": "> 100 µg/mL"}

Which value of MIC50 has been reported for CCCCOc1ccc(/C=C/C=C/C(=O)NN)cc1 in the records?
> 100 µg/mL

Entry NNC(=O)/C=C/c1ccc(C(F)(F)F)cc1 please
46 µg/mL

Now the same for O=C(/C=C/C=C/c1ccc(F)cc1)NO
> 100 µg/mL

====

MIC50 values for the compounds below.
Test system: Mycobacterium marinum
PROTOCOL DETAILS: Antimycobacterial activity against Mycobacterium marinum ATCC BAA-535/M assessed as inhibition of mycobacterial growth incubated for 10 to 14 days by resazurin microtiter assay
Format: functional
CONDITION DESCRIPTION: time 10-14 day
Write down the numeric answer in µg/mL and omit the unit.

Consider the compound shown here: CCCCCCCOc1ccc(/C=C/C=C/C(=O)NO)cc1 What is its recorded MIC50?
48.3

Lookup O=C(/C=C/c1ccc(F)cc1)NO
3.5

Also check CCCCCC(=O)ONC(=O)/C=C/C=C/c1ccc(OC)cc1
26.8

Item: O=C(/C=C/c1cccc(C(F)(F)F)c1)NO
7.1

Ok, now O=C(/C=C/c1cccc(F)c1)NO
3.3

Another compound to look at: CCCCCC(=O)ONC(=O)/C=C/C=C/c1ccc(F)cc1
19.8

Same question, CCCCCCCCc1ccc(/C=C/C=C/C(=O)NO)cc1 this time
49.4

Do the same for COc1ccc(/C=C/C=C/C(=O)NN)cc1 please
12.6

Next compound: NNC(=O)/C=C/C=C/c1ccc(F)cc1
20.6

Also O=C(/C=C/C=C/c1ccc(F)cc1)NO ?
18.1

====

Tested on: Mycobacteroides abscessus
PROTOCOL DETAILS: Antimycobacterial activity against Mycobacterium abscessus CIP104536T with smooth morphotype assessed as inhibition of mycobacterial growth incubated for 3 to 5 days by resazurin microtiter assay
Type: functional
CONDITION DESCRIPTION: time 3-5 day
ASSAY METRIC: MIC50

Below: 5 compounds and their reported MIC50.
{"SMILES CODE": "O=C(/C=C/c1ccc(F)cc1)NO", "TEST SYSTEM": "Mycobacteroides abscessus", "RESULT": "> 100 µg/mL"}
{"SMILES CODE": "O=C(/C=C/C=C/c1cccc(C(F)(F)F)c1)NO", "TEST SYSTEM": "Mycobacteroides abscessus", "RESULT": "52.3 µg/mL"}
{"SMILES CODE": "CCCCCCCCc1ccc(/C=C/C=C/C(=O)NO)cc1", "TEST SYSTEM": "Mycobacteroides abscessus", "RESULT": "> 100 µg/mL"}
{"SMILES CODE": "O=C(/C=C/c1cccc(F)c1)NO", "TEST SYSTEM": "Mycobacteroides abscessus", "RESULT": "12.2 µg/mL"}
{"SMILES CODE": "O=C(/C=C/c1cccc(C(F)(F)F)c1)NO", "TEST SYSTEM": "Mycobacteroides abscessus", "RESULT": "72.5 µg/mL"}

Given O=C(/C=C/C=C/c1ccccc1)NO , state its recorded MIC50.
> 100 µg/mL

Do the same for O=C(/C=C/C=C/c1cccc(F)c1)NO please
36.8 µg/mL

Okay, and O=C(/C=C/c1ccc2c(c1)OCO2)NO ?
> 100 µg/mL

Now the same for O=C(/C=C/C=C/c1ccncc1)NO
> 100 µg/mL

Entry to check: O=C(/C=C/c1ccncc1)NO
> 100 µg/mL

Let us now turn to NNC(=O)/C=C/C=C/c1ccc(C(F)(F)F)cc1
> 100 µg/mL

====

Test system: Mycobacterium marinum
PROTOCOL DETAILS: Antimycobacterial activity against Mycobacterium marinum ATCC BAA-535/M assessed as inhibition of mycobacterial growth incubated for 10 to 14 days by resazurin microtiter assay
Format: functional
CONDITION DESCRIPTION: time 10-14 day
Just a reminder that ties go to f: only MIC50 strictly below 10 µg/mL counts as t.

{"SMILES CODE": "NNC(=O)/C=C/c1ccc(F)cc1", "TEST SYSTEM": "Mycobacterium marinum", "QUALITATIVE LABEL": "f"}
{"SMILES CODE": "CCCCOc1ccc(/C=C/C=C/C(=O)NN)cc1", "TEST SYSTEM": "Mycobacterium marinum", "QUALITATIVE LABEL": "f"}
{"SMILES CODE": "O=C(/C=C/C=C/c1ccc(C(F)(F)F)cc1)NO", "TEST SYSTEM": "Mycobacterium marinum", "QUALITATIVE LABEL": "f"}

Strictly below 10 µg/mL in MIC50? CCCCCCCCCCOc1ccc(/C=C/C=C/C(=O)NO)cc1
f

====

System: Mycobacteroides abscessus
PROTOCOL DETAILS: Antimycobacterial activity against Mycobacterium abscessus CIP104536T with rough morphotype assessed as inhibition of mycobacterial growth incubated for 3 to 5 days by resazurin microtiter assay
Format: functional
CONDITION DESCRIPTION: time 3-5 day
The compounds listed here are annotated with their MIC50.

{"SMILES CODE": "CCCCCCCCCC(=O)ONC(=O)/C=C/C=C/c1ccc(F)cc1", "ASSAY METRIC": "MIC50", "RESULT": "> 100 µg/mL"}
{"SMILES CODE": "O=C(/C=C/c1ccc2c(c1)OCO2)NO", "ASSAY METRIC": "MIC50", "RESULT": "> 100 µg/mL"}
{"SMILES CODE": "O=C(/C=C/C=C/c1ccncc1)NO", "ASSAY METRIC": "MIC50", "RESULT": "> 100 µg/mL"}
{"SMILES CODE": "CCCCCCONC(=O)/C=C/C=C/c1ccc(F)cc1", "ASSAY METRIC": "MIC50", "RESULT": "> 100 µg/mL"}
{"SMILES CODE": "NNC(=O)/C=C/c1ccc2c(c1)OCO2", "ASSAY METRIC": "MIC50", "RESULT": "> 100 µg/mL"}
{"SMILES CODE": "NNC(=O)/C=C/C=C/c1ccc(C(F)(F)F)cc1", "ASSAY METRIC": "MIC50", "RESULT": "5.7 µg/mL"}
{"SMILES CODE": "COc1ccc(/C=C/C=C/C(=O)NN)cc1", "ASSAY METRIC": "MIC50", "RESULT": "> 100 µg/mL"}
{"SMILES CODE": "CCCCCC(=O)ONC(=O)/C=C/c1ccc(OC)cc1", "ASSAY METRIC": "MIC50", "RESULT": "> 100 µg/mL"}

Then this compound:
Given the compound O=C(/C=C/C=C/c1ccc(C(F)(F)F)cc1)NO , what is its reported MIC50?
5.5 µg/mL

These entries and their values trace back to ChEMBL document CHEMBL5143637.
